Data origin, for the record: patent US20210253718A1

- testTarget: T1, FZD8 CRD (Homo sapiens, UniProt Q9H461)
- T1 construct: K31-D155; GPI anchor signal (C); expressed in transfected cells; host or cells: CHO cells, lentiviral pLenti-puro
- T1 sequence (Q9H461 31-155): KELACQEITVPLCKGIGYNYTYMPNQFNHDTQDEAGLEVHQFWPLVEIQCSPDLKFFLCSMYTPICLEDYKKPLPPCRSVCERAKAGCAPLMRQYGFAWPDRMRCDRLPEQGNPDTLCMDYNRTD
- procedureSummary: Flow cytometry of anti-FZD5 Fab binding to CHO cells overexpressing Frizzled CRD
readoutLabel: Median fluorescence, Frizzled CRD overexpressed on CHO cells: FZD8

molecule	reportedMeasurement
Fab-2913: anti-FZD5 Fab with antibody variable region Fv-2913; CDR SEQ ID NOs: 35, 36, 52, 91, 128, 165 (antibody, V domains shown) VH: EVQLVESGGGLVQPGGSLRLSCAASGFNISYSSIHWVRQAPGKGLEWVASIYPYSSSTSYADSVKGRFTISADTSKNTAYLQMNSLRAEDTAVYYCARYGYYGLDYWGQGTLVTVSS VL: DIQMTQSPSSLSASVGDRVTITCRASQSVSSAVAWYQQKPGKAPKLLIYSASSLYSGVPSRFSGSRSGTDFTLTISSLQPEDFATYYCQQWGVSHYLFTFGQGTKVEIK	8.98
Fab-2915: anti-FZD5 Fab with antibody variable region Fv-2915; CDR SEQ ID NOs: 35, 36, 54, 93, 130, 166 (antibody, V domains shown) VH: EVQLVESGGGLVQPGGSLRLSCAASGFNIYYYSMHWVRQAPGKGLEWVASIYSSYGYTSYADSVKGRFTISADTSKNTAYLQMNSLRAEDTAVYYCARGYHYYPYYSGLDYWGQGTLVTVSS VL: DIQMTQSPSSLSASVGDRVTITCRASQSVSSAVAWYQQKPGKAPKLLIYSASSLYSGVPSRFSGSRSGTDFTLTISSLQPEDFATYYCQQAYYHSLITFGQGTKVEIK	10.00

Now take the following molecule into account.
Query string: Item under review: Fab-2907: anti-FZD5 Fab with antibody variable region Fv-2907; CDR SEQ ID NOs: 35, 36, 46, 85, 122, 159 (antibody, V domains shown) VH: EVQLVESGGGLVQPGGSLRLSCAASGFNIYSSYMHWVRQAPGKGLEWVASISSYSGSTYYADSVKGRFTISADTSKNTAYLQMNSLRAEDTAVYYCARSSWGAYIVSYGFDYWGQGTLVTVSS VL: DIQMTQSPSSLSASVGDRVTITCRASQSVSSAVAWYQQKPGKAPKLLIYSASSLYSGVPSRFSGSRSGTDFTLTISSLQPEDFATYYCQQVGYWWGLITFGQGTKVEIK . Reported Median fluorescence, Frizzled CRD overexpressed on CHO cells: FZD8?
Result string: 11.76
